Below: a set of entries, each annotated with reported pIC50.
- Tested on: LC-2/ad cells
- protocol.notes: Growth inhibition (alamarBlue, 96 h)
- Assay type: cell-based, human
- protocol.conditions: Homo sapiens, LC-2-ad, 96 h, read-out: IC50 for Inhibition of Growth (95% CI)
pIC50: −log10 of the molar value.
measured.parameter: pIC50

> print(dat)
                                   compound    test.system  recorded.number
1  COCc1ccc(NC(=O)c2c(C#CCN3CCOCC3)n(C3(C)CC3)c3ncnc(N)c23)cc1 [Vepafestinib]  LC-2/ad cells             7.82
2  COc1ccc(CN2C3CC2CN(c2ccc(-c4cc(OCC(C)(C)O)cn5ncc(C#N)c45)cn2)C3)cn1 [Selpercatinib]  LC-2/ad cells             7.92
3  CO[C@]1(C(=O)N[C@@H](C)c2ccc(-n3cc(F)cn3)nc2)CC[C@H](c2nc(C)cc(Nc3cc(C)[nH]n3)n2)CC1 [Pralsetinib]  LC-2/ad cells             7.74
